- Tested on: L. lactis CBC7
- Protocol Details: Deferred antagonism assay
- Format: cell-based
- Parameters: key: + = Enhanced bioactivity relative to control; − = Bioactivity equal to or less than control; NA = no activity evident
- Conditions: XX and XXX hinge mutant producers
Ends that are not written are not given here.
Attribute Measured: bioactivity relative to a nisin A-producing control

>>> readout_value("NisinA PNR (ITSISLCTPGCKTGALMGCPNRTATCHCSIHVSK; not fully specified (bridges); also: lantibiotic nisin-A: lanthionine rings and dehydrated residues, places not given here; UniProt P13068 24-57, looked up, variant N20P M21N K22R) [nisin A hinge variant PNR (i.e. N20P, M21N, K22R)]")
"−"
>>> readout_value("NisinA PTL (ITSISLCTPGCKTGALMGCPTLTATCHCSIHVSK; thioether (positions not given here); not fully specified (residues 2, 5, 33, bridges); also: lantibiotic nisin A, thioether rings and dehydro residues not given here; UniProt P13068 24-57, looked up, variant N20P M21T K22L) [nisin A hinge variant PTL (i.e. N20P, M21T, K22L)]")
"+"
>>> readout_value("NisinA PLA (ITSISLCTPGCKTGALMGCPLATATCHCSIHVSK; not fully specified (bridges); also: lantibiotic nisin-A: lanthionine rings and dehydrated residues, places not given here; UniProt P13068 24-57, looked up, variant N20P M21L K22A) [nisin A hinge variant PLA (i.e. N20P, M21L, K22A)]")
"−"

----------
- System: C. sporogenes CBC5
- Protocol Details: Deferred antagonism assay
- Format: cell-based, Clostridium sporogenes
- Parameters: key: + = Enhanced bioactivity relative to control; − = Bioactivity equal to or less than control; NA = no activity evident
- Conditions: producing strain
Ends that are not written are not given here.
Attribute Measured: Bioactivity relative to control

>>> readout_value("N20I: nisin A derivative, hinge substitution N20I (ITSISLCTPGCKTGALMGCIMKTATCHCSIHVSK; cysteine pairing not given here; also: lantibiotic nisin-A; UniProt P13068 24-57, looked up, variant N20I)")
"−"
>>> readout_value("M21W: nisin A derivative, hinge substitution M21W (ITSISLCTPGCKTGALMGCNWKTATCHCSIHVSK; cysteine pairing not given here; also: lantibiotic nisin-A; UniProt P13068 24-57, looked up, variant M21W)")
"−"
>>> readout_value("NisinA N20R (ITSISLCTPGCKTGALMGCRMKTATCHCSIHVSK; not fully specified; also: lantibiotic nisin: dehydrated residues and thioether rings not placed; UniProt P13068 24-57, looked up, variant N20R) [nisin A derivative, hinge substitution N20R]")
"+"
>>> readout_value("NisinA N20P (ITSISLCTPGCKTGALMGCPMKTATCHCSIHVSK; not fully specified; also: lantibiotic nisin: dehydrated residues and thioether rings not placed; UniProt P13068 24-57, looked up, variant N20P) [nisin A derivative, hinge substitution N20P]")
"+"
>>> readout_value("N20V: nisin A derivative, hinge substitution N20V (ITSISLCTPGCKTGALMGCVMKTATCHCSIHVSK; cysteine pairing not given here; also: lantibiotic nisin-A; UniProt P13068 24-57, looked up, variant N20V)")
"−"
>>> readout_value("K22D: nisin A derivative, hinge substitution K22D; peptide not detected by CMS (ITSISLCTPGCKTGALMGCNMDTATCHCSIHVSK; cysteine pairing not given here; also: lantibiotic nisin-A; UniProt P13068 24-57, looked up, variant K22D)")
"−"
>>> readout_value("NisinA K22S (ITSISLCTPGCKTGALMGCNMSTATCHCSIHVSK; not fully specified; also: lantibiotic nisin: dehydrated residues and thioether rings not placed; UniProt P13068 24-57, looked up, variant K22S) [nisin A derivative, hinge substitution K22S]")
"−"

----------
- System: Listeria monocytogenes 33176
- Protocol Details: Deferred antagonism assay
- Format: cell-based
- Conditions: nisin strain; L. monocytogenes 33176
Ends that are not written are not given here.
Attribute Measured: Activity score (zone)

>>> readout_value("NisinA M21G (ITSISLCTPGCKTGALMGCNGKTATCHCSIHVSK; not fully specified; also: lantibiotic: lanthionine rings and dehydro residues not placed; UniProt P13068 24-57, looked up, variant M21G) [nisin A derivative, hinge substitution M21G]")
"+ (+, 1-5 mm zone)"
>>> readout_value("NisinA M21I (ITSISLCTPGCKTGALMGCNIKTATCHCSIHVSK; not fully specified; also: lantibiotic: lanthionine rings and dehydro residues not placed; UniProt P13068 24-57, looked up, variant M21I) [nisin A derivative, hinge substitution M21I]")
"+ (+, 1-5 mm zone)"

----------
- Test system: L. monocytogenes CBC2
- Protocol Details: Deferred antagonism assay
- Format: cell-based, Listeria monocytogenes
- Set-up: key: + = Enhanced bioactivity relative to control; − = Bioactivity equal to or less than control; NA = no activity evident
- Conditions: producing strain; L. mono CBC2
Ends that are not written are not given here.
Attribute Measured: Bioactivity relative to control

>>> readout_value("NisinA N20R (ITSISLCTPGCKTGALMGCRMKTATCHCSIHVSK; not fully specified; also: lantibiotic nisin: dehydrated residues and thioether rings not placed; UniProt P13068 24-57, looked up, variant N20R) [nisin A derivative, hinge substitution N20R]")
"−"

----------
- Test system: Listeria monocytogenes 33007
- Protocol Details: Deferred antagonism assay
- Format: cell-based
- Conditions: nisin strain; L. monocytogenes 33007
Ends that are not written are not given here.
Attribute Measured: Activity score (zone)

>>> readout_value("NisinA M21I (ITSISLCTPGCKTGALMGCNIKTATCHCSIHVSK; not fully specified; also: lantibiotic: lanthionine rings and dehydro residues not placed; UniProt P13068 24-57, looked up, variant M21I) [nisin A derivative, hinge substitution M21I]")
"++ (++, 6-10 mm zone)"
>>> readout_value("NisinA M21S (ITSISLCTPGCKTGALMGCNSKTATCHCSIHVSK; not fully specified; also: lantibiotic nisin: dehydrated residues and thioether rings not placed; UniProt P13068 24-57, looked up, variant M21S) [nisin A derivative, hinge substitution M21S]")
"++ (++, 6-10 mm zone)"
>>> readout_value("NisinA M21G (ITSISLCTPGCKTGALMGCNGKTATCHCSIHVSK; not fully specified; also: lantibiotic: lanthionine rings and dehydro residues not placed; UniProt P13068 24-57, looked up, variant M21G) [nisin A derivative, hinge substitution M21G]")
"+ (+, 1-5 mm zone)"
>>> readout_value("NisinA K22A (ITSISLCTPGCKTGALMGCNMATATCHCSIHVSK; not fully specified; also: lantibiotic: lanthionine rings and dehydro residues not placed; UniProt P13068 24-57, looked up, variant K22A) [nisin A derivative, hinge substitution K22A]")
"+ (+, 1-5 mm zone)"

----------
- System: Listeria monocytogenes 33225
- Protocol Details: Deferred antagonism assay
- Type: cell-based
- Conditions: nisin strain; L. monocytogenes 33225
Ends that are not written are not given here.
Attribute Measured: Activity score (zone)

>>> readout_value("NisinA M21G (ITSISLCTPGCKTGALMGCNGKTATCHCSIHVSK; not fully specified; also: lantibiotic: lanthionine rings and dehydro residues not placed; UniProt P13068 24-57, looked up, variant M21G) [nisin A derivative, hinge substitution M21G]")
"+ (+, 1-5 mm zone)"
>>> readout_value("NisinA M21I (ITSISLCTPGCKTGALMGCNIKTATCHCSIHVSK; not fully specified; also: lantibiotic: lanthionine rings and dehydro residues not placed; UniProt P13068 24-57, looked up, variant M21I) [nisin A derivative, hinge substitution M21I]")
"+ (+, 1-5 mm zone)"

----------
- Test system: L. monocytogenes CBC2
- Protocol Details: Deferred antagonism assay
- Format: cell-based, Listeria monocytogenes
- Design: key: + = Enhanced bioactivity relative to control; − = Bioactivity equal to or less than control; NA = no activity evident
- Conditions: producing strain; L. mono CBC2
Ends that are not written are not given here.
Attribute Measured: Bioactivity relative to control

>>> readout_value("NisinA N20H (ITSISLCTPGCKTGALMGCHMKTATCHCSIHVSK; not fully specified; also: lantibiotic nisin: dehydrated residues and thioether rings not placed; UniProt P13068 24-57, looked up, variant N20H) [nisin A derivative, hinge substitution N20H]")
"−"
>>> readout_value("K22D: nisin A derivative, hinge substitution K22D; peptide not detected by CMS (ITSISLCTPGCKTGALMGCNMDTATCHCSIHVSK; cysteine pairing not given here; also: lantibiotic nisin-A; UniProt P13068 24-57, looked up, variant K22D)")
"−"
>>> readout_value("M21F: nisin A derivative, hinge substitution M21F (ITSISLCTPGCKTGALMGCNFKTATCHCSIHVSK; cysteine pairing not given here; also: lantibiotic nisin-A; UniProt P13068 24-57, looked up, variant M21F)")
"−"

----------
- Test system: L. monocytogenes CBC2
- Protocol Details: Deferred antagonism assay
- Format: cell-based, Listeria monocytogenes
- Design: key: + = Enhanced bioactivity relative to control; − = Bioactivity equal to or less than control; NA = no activity evident
- Conditions: producing strain; L. mono CBC2
Ends that are not written are not given here.
Attribute Measured: Bioactivity relative to control

>>> readout_value("NisinA K22S (ITSISLCTPGCKTGALMGCNMSTATCHCSIHVSK; not fully specified; also: lantibiotic nisin: dehydrated residues and thioether rings not placed; UniProt P13068 24-57, looked up, variant K22S) [nisin A derivative, hinge substitution K22S]")
"+"
>>> readout_value("NisinA K22G (ITSISLCTPGCKTGALMGCNMGTATCHCSIHVSK; cysteine pairing not given here; also: lantibiotic nisin-A; UniProt P13068 24-57, looked up, variant K22G) [nisin A derivative, hinge substitution K22G]")
"−"
>>> readout_value("NisinA N20S (ITSISLCTPGCKTGALMGCSMKTATCHCSIHVSK; not fully specified; also: lantibiotic nisin: dehydrated residues and thioether rings not placed; UniProt P13068 24-57, looked up, variant N20S) [nisin A derivative, hinge substitution N20S]")
"+"
>>> readout_value("NisinA M21Y (ITSISLCTPGCKTGALMGCNYKTATCHCSIHVSK; not fully specified; also: lantibiotic: lanthionine rings and dehydro residues not placed; UniProt P13068 24-57, looked up, variant M21Y) [nisin A derivative, hinge substitution M21Y]")
"+"
>>> readout_value("N20V: nisin A derivative, hinge substitution N20V (ITSISLCTPGCKTGALMGCVMKTATCHCSIHVSK; cysteine pairing not given here; also: lantibiotic nisin-A; UniProt P13068 24-57, looked up, variant N20V)")
"−"
>>> readout_value("NisinA M21K (ITSISLCTPGCKTGALMGCNKKTATCHCSIHVSK; not fully specified; also: lantibiotic nisin: dehydrated residues and thioether rings not placed; UniProt P13068 24-57, looked up, variant M21K) [nisin A derivative, hinge substitution M21K]")
"−"
>>> readout_value("N20L: nisin A derivative, hinge substitution N20L (ITSISLCTPGCKTGALMGCLMKTATCHCSIHVSK; cysteine pairing not given here; also: lantibiotic nisin-A; UniProt P13068 24-57, looked up, variant N20L)")
"−"
